# Test system: α-smooth muscle actin (α-SMA) mRNA
# Method Notes: Anti-remodelling activity in human lung fibroblasts (HFL1): TGFβ-induced α-SMA mRNA (Assay 4)
# Assay type: cell-based
# Condition: Homo sapiens; 3 μM; HFL1 cells, TGFβ 10 ng/ml, 24 h; read-out: Inhibition of α-SMA mRNA synthesis (%)
Quantity Measured: inhibition at 3 µM (%)
The figure you give is taken to be in %; do not add the unit.

Fill blank: measured inhibition at 3 µM of the compound COc1cc(CCC(=O)C(C)C(=O)C2(C)CC2)ccc1O (centres unmarked) [Compound 7] is ____.
-8

Name the recorded inhibition at 3 µM for COc1cc(CCC(=O)C(C)C(=O)c2ccccc2)ccc1O (centres unmarked) [Compound 11] .
8

What measured inhibition at 3 µM goes with COC(=O)c1ccc(C(=O)CC(=O)CCc2ccc(O)c(OC)c2)cc1 [Compound 25] ?
-3

Query: inhibition at 3 µM; subject: COc1cc(CCC(=O)CC(=O)c2ccc(Cl)cc2C)ccc1O [Compound 76]
-1

Value lookup for inhibition at 3 µM; key = COc1cc(CCC(=O)CC(=O)c2ccccc2Cl)ccc1O [Compound 74]
-4

====

# System Name: 5-lipoxygenase (Homo sapiens, UniProt P09917)
# Construct: endogenous in cells; host or cells: human peripheral blood mononuclear leukocytes (PBMLs)
# Sequence (P09917 whole entry): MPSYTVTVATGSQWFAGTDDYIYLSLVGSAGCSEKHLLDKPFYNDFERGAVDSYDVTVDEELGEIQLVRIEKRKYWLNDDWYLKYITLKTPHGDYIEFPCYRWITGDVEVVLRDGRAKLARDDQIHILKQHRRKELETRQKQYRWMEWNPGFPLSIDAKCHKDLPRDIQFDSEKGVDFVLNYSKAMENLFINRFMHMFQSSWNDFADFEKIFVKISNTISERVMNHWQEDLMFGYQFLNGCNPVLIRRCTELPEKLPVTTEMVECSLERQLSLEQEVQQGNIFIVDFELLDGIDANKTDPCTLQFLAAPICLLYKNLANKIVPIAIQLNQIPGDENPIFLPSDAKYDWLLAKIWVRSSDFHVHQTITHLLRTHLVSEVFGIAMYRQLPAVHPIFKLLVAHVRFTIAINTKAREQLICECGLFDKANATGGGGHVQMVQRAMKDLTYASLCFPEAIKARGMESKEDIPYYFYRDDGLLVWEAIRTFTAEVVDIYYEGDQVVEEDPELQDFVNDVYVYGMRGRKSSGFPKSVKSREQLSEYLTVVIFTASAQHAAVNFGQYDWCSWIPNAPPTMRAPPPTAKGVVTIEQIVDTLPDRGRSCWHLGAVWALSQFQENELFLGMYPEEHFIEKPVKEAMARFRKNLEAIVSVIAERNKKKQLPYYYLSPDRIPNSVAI
# Method Notes: 5-lipoxygenase activity (LTB4) in human peripheral blood mononuclear leukocytes (Assay 6)
# Assay type: cell-based
# Condition: 3 μM, human PBMLs, A23187 30 μM
Quantity Measured: Inhibition of 5-LO (%)
// return numeric value only (unit: %, not printed)

For the compound shown here, `COc1cc(CCC(=O)CC(=O)C(C)C)ccc1O` , give the reported Inhibition of 5-LO (%).
26

Bench note: what Inhibition of 5-LO (%) did `COc1cc(CCC(=O)CC(=O)c2ccc(Cl)cc2Cl)ccc1O` show?
45

Could you tell me which Inhibition of 5-LO (%) is on file for CCC(=O)CC(=O)CCc1ccc(O)c(OC)c1 [3-gingerdione, reference compound] ?
−5

State the recorded Inhibition of 5-LO (%) for this entry: `COc1cc(CCC(=O)CC(=O)c2ccc(Cl)c(Cl)c2)ccc1O`
63

====

# Tested on: WI-38 cells
# Method Notes: Viability of WI-38 cells, Alamar Blue (Assay 5)
# Assay type: cell-based, human
# Condition: 30 μM
Quantity Measured: Decrease in cell viability (%)
Respond with the figure and its unit, in that order.

Provide the documented Decrease in cell viability (%) with WI-38 cells as the system for `COc1cc(CCC(=O)C(C)(C)C(=O)C2(C)CC2)ccc1O`
5%

Notebook: pull reported Decrease in cell viability (%) for WI-38 cells, entry `COc1cc(CCC(=O)C(C)(C)C(=O)c2ccccc2)ccc1O`
−3%

Under WI-38 cells: Decrease in cell viability (%) value of `COc1cc(CCC(=O)CC(=O)C(C)C)ccc1O` ?
−10%

Checklist item: Decrease in cell viability (%) tested on WI-38 cells, entry `COc1cc(CCC(=O)C(C)(C)C(=O)c2ccc(C)cc2)ccc1O` , value?
−7%

Report Decrease in cell viability (%) for `COc1cc(CCC(=O)CC(=O)C(C)(C)C)ccc1O` tested on WI-38 cells.
4%

Find the measured Decrease in cell viability (%): item COc1cc(CCC(=O)C(C)C(=O)c2ccccc2)ccc1O (stereo not shown) , target or system WI-38 cells.
−7%

Observed Decrease in cell viability (%) on WI-38 cells for `COc1cc(CCC(=O)CC(=O)c2cccc3ccccc23)ccc1O` , please.
40%

# value lookup — system WI-38 cells, readout Decrease in cell viability (%), item COc1cc(CCC(=O)C(C)C(=O)c2ccc(O)c(OC)c2)ccc1O (stereo not shown)
−9%

Record lookup: for WI-38 cells, what Decrease in cell viability (%) belongs to `COc1cc(/C=C/C(=O)CC(=O)C(C)(C)C)ccc1O` ?
5%

Hi! What's the reported Decrease in cell viability (%) for `COc1cc(CCC(=O)CC(=O)Cc2cccc3ccccc23)ccc1O` on WI-38 cells?
12%

Just for reference, patent US7589123B2 is where these values come from.
